- target or system: REFACTO® (factor VIII-like polypeptide, amino acids 1-743 and 1638 through 2332 of human factor VIII) (Homo sapiens)
- Construct: amino acids 1-743 and 1638 through 2332 of human factor VIII; purchased Genetics Institute, Inc. (Cambridge, Mass.)
- Sequence (P00451 20-762): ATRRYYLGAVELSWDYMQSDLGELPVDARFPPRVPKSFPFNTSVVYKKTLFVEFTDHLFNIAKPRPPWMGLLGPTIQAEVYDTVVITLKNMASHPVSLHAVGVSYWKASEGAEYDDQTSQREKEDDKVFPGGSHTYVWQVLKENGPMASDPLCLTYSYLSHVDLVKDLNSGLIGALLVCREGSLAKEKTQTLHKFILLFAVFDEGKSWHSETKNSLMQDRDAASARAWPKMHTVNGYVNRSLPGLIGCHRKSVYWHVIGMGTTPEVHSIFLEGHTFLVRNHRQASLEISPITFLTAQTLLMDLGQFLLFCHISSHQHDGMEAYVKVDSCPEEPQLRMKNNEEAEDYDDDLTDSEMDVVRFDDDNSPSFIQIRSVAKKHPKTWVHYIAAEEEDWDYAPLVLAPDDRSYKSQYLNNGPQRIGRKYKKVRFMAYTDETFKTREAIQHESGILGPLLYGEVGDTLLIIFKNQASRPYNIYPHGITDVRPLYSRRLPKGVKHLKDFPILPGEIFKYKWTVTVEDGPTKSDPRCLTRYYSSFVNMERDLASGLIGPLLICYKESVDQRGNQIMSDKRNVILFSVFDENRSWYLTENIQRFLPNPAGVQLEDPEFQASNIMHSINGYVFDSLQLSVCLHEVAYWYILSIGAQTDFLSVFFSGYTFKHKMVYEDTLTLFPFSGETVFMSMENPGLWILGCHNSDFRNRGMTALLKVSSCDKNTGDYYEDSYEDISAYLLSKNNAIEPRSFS
- Sequence (P00451 1657-2351): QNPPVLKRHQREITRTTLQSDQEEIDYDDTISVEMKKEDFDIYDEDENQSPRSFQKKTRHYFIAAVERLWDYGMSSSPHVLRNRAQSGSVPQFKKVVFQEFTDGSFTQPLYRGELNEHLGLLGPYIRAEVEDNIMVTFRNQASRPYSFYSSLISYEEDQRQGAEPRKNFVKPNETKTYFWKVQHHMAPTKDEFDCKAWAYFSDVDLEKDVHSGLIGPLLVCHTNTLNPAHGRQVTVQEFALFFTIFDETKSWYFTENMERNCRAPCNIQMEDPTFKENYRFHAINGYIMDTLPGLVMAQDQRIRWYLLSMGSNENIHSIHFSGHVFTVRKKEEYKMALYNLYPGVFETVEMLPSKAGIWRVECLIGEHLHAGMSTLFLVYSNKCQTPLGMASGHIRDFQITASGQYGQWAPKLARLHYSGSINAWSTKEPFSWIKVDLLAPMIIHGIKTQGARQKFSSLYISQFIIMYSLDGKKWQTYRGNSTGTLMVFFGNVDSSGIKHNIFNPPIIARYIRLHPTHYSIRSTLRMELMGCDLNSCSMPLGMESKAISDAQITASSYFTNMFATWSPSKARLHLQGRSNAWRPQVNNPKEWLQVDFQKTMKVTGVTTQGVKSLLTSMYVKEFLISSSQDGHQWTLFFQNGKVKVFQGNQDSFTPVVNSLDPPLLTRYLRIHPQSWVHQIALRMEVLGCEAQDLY
- assay method text: Phage ELISA of third-round isolates for binding to the factor VIII target
- test settings: TN8 library phage isolates; HRP anti-M13, TMB, absorbance at OD630

- substance: "10 (HPCGSWLRPCLH; Selected Phage Display Sequence) [compound 10]"
  ELISA signal: 1.0
- substance: "08 (HPCGAWLRPCYN; Selected Phage Display Sequence) [compound 08]"
  ELISA signal: 1.0
- substance: "07 (HACGSWFRPCHA; Selected Phage Display Sequence) [compound 07]"
  ELISA signal: 0.4
- substance: "11/G10 (HRCGSWLHPCLA; Selected Phage Display Sequence)"
  ELISA signal: 0.3
- substance: "05 (RGCGSWLRPCLD; Selected Phage Display Sequence) [compound 05]"
  ELISA signal: 0.2
